Target: Homo Kv1.3 (Homo), P22001
Sequence (P22001 whole entry): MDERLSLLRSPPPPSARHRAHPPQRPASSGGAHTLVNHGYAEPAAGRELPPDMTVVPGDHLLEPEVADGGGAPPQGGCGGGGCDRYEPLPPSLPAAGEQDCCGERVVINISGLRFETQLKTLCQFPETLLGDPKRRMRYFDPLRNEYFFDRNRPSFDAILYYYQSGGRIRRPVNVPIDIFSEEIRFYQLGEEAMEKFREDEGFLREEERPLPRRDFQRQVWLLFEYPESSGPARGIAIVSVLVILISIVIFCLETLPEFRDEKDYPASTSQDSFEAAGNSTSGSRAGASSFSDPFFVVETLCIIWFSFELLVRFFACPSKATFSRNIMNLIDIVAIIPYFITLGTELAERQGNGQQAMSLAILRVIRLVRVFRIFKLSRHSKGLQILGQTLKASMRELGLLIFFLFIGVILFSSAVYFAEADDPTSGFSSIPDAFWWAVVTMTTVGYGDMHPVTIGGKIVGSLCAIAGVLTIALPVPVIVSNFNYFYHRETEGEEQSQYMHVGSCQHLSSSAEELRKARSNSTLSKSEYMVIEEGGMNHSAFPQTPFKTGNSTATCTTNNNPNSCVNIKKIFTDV
pKi: −log10 of the molar value.
measured-parameter: pKi

INSERT INTO results (binder, experimental_result) VALUES
  ('GVEINVKCSGSPQCLKPCKDAGMRFGKCMNRKCHCTPK (modifications not checked) [Kaliotoxin-1 (KTX)]', 11.10),
  ('ZFTNVSCTTSKECWSVCQRLHNTSRGKCMNKKCRCYS (modifications not checked) [Charybdotoxin (CTX)]', 9.05),
  ('GVPINVSCTGSPQCIKPCKDAGMRFGKCMNRKCHCTPK (modifications not checked) [Agitoxin-2 (AgTx2)]', 10.39);

// data source = patent US20110009283A1
